Numbers sourced from patent US8410302B2.

# Test system: Erysiphae graminis
# PROTOCOL_DETAILS: Fungicidal activity against barley powdery mildew (BPM) disease, control value
# Format: in vivo
# STUDY_CONDITIONS: Hordeum vulgare, 168 h; 10 ppm, barley powdery mildew; read-out: BPM control value (C.V.)
Quick reference: pest or weed control at 10 ppm of the listed items.
Write the answer as a number in %, unit excluded.

Examples with answers:
CO/N=C(/C(=O)OC)c1ccccc1COc1c(C)cccc1C=C(Cl)Cl [Example 49] ... 100
CO/N=C(/C(=O)OC)c1ccccc1COc1cccc(C=C(Cl)Cl)c1Cl [Example 43] ... 100
CO/N=C(/C(=O)OC)c1ccccc1COc1ccc(C=C(F)F)cc1 [Example 9] ... 60
CO/N=C(/C(=O)OC)c1ccccc1COc1ccc(C)cc1C=C(Cl)Cl [Example 45] ... 100
CNC(=O)/C(=N/OC)c1ccccc1COc1cccc(C=C(Cl)Cl)c1 [Example 2] ... 100
CNC(=O)/C(=N/OC)c1ccccc1COc1ccc(C=C(Br)Br)cc1 [Example 8] ... 100
CO/N=C(/C(=O)OC)c1ccccc1COc1c(OC)ccc(C=C(Cl)Cl)c1Br [Example 51] ... 100
CNC(=O)/C(=N/OC)c1ccccc1COc1ccc(C=C(Cl)Cl)cc1Cl [Example 40] ... 100
CNC(=O)/C(=N/OC)c1ccccc1COc1ccc(C=C(Cl)Cl)cc1 [Example 4] ... 100
CNC(=O)/C(=N/OC)c1ccccc1COc1ccc(C=C(Cl)Cl)cc1C [Example 42] ... 100

Please look up its pest or weed control at 10 ppm: CNC(=O)/C(=N/OC)c1ccccc1COc1cccc(C=C(Cl)Cl)c1Cl [Example 44]
100

Please look up its pest or weed control at 10 ppm: CO/N=C(/C(=O)OC)c1ccccc1COc1cc(C=C(Cl)Cl)ccc1OC [Example 47]
100

Please look up its pest or weed control at 10 ppm: CO/N=C(/C(=O)OC)c1ccccc1COc1ccc(C=C(Cl)Cl)cc1Br [Example 53]
100

Please look up its pest or weed control at 10 ppm: CO/N=C(/C(=O)OC)c1ccccc1COc1cccc(C=C(Cl)Cl)c1 [Example 1]
100

Please look up its pest or weed control at 10 ppm: CO/N=C(/C(=O)OC)c1ccccc1COc1ccc(C=C(Cl)Cl)cc1C [Example 41]
100

====

# Test system: Rhizoctonia solani AG-1
# PROTOCOL_DETAILS: Fungicidal activity against rice sheath blight (RSB) disease, control value
# STUDY_CONDITIONS: 2 ppm, rice sheath blight
Quick reference: RSB control value (C.V.) of the listed items.
Write the answer as a number in %, unit excluded.

Examples with answers:
CNC(=O)/C(=N/OC)c1ccccc1COc1c(OC)ccc(C=C(Cl)Cl)c1Br ... 95
CO/N=C(/C(=O)OC)c1ccccc1CON=C(C)c1ccc(C=C(Br)Br)cc1 ... 90
CNC(=O)/C(=N/OC)c1ccccc1CON=C(C)c1ccc(C=C(Cl)Br)cc1 ... 80
CNC(=O)/C(=N/OC)c1ccccc1CON=C(C)c1ccc(C=C(Cl)Cl)cc1 ... 90
CNC(=O)/C(=N/OC)c1ccccc1CON=C(C)c1cccc(C=C(Cl)Br)c1 ... 67
CNC(=O)/C(=N/OC)c1ccccc1CON=C(C)c1cccc(C=C(Br)Br)c1 ... 30

Please look up its RSB control value (C.V.): `CO/N=C(/C(=O)OC)c1ccccc1CON=C(C)c1cccc(C=C(Br)Br)c1`
98
